- System: morningglory
- EXPERIMENT: Test A postemergence
- Type: in vivo, Ipomoea spp.
- APPLIED_CONDITIONS: postemergence, 125 g ai/ha, about 10 days, visual rating on 0 to 100 scale (0 no effect, 100 complete control)
I would appreciate it if you labelled entries Fulfilled when Morningglory plant response rating is 70 or higher, otherwise Not fulfilled.

{"COMPOUND": "Cc1cc(C(=O)NCC(F)(F)C(F)(F)F)nn1Cc1cccc(C(F)(F)F)c1 [Compound 8]", "CLASS_NAME": "Fulfilled"}
{"COMPOUND": "CCc1cc(C(=O)NOC(C)(C)CC)nn1Cc1cccc(OC(F)(F)F)c1 [Compound 71]", "CLASS_NAME": "Not fulfilled"}
{"COMPOUND": "CCCNC(=O)c1cc(CC)n(Cc2ccnc(OC(F)F)c2)n1 [Compound 132]", "CLASS_NAME": "Fulfilled"}
{"COMPOUND": "CCCc1cc(C(=O)NCC)nn1Cc1cc(C(F)(F)F)nn1C [Compound 129]", "CLASS_NAME": "Fulfilled"}
{"COMPOUND": "CCONC(=O)c1cc(CC)n(Cc2cc(C(F)(F)F)nn2CC)n1 [Compound 121]", "CLASS_NAME": "Fulfilled"}
{"COMPOUND": "CCCNC(=O)c1cc(CC)n(Cc2nc(C(F)(F)F)no2)n1 [Compound 164]", "CLASS_NAME": "Not fulfilled"}
{"COMPOUND": "CCCNC(=O)c1cc(CCCl)n(Cc2ccnc(C(F)(F)F)c2)n1 [Compound 145]", "CLASS_NAME": "Fulfilled"}
{"COMPOUND": "CCNC(=O)c1cc(CC)n(Cc2ccnc(OC(F)F)c2)n1 [Compound 130]", "CLASS_NAME": "Fulfilled"}
{"COMPOUND": "CCCCc1cc(C(=O)NCC(F)(F)F)nn1Cc1ccnc(C(F)(F)F)c1 [Compound 148]", "CLASS_NAME": "Fulfilled"}
{"COMPOUND": "CCCc1cc(C(=O)NC2CC2)nn1Oc1ccnc(C(F)(F)F)c1 [Compound 93]", "CLASS_NAME": "Not fulfilled"}
{"COMPOUND": "CCc1cc(-c2ccc(C(F)(F)F)cc2)nn1C(=O)c1ccnc(C(F)(F)F)c1 [Compound 165]", "CLASS_NAME": "Not fulfilled"}
{"COMPOUND": "CCCc1cc(C(=O)Nc2ccc(F)cc2)nn1Cc1cc(C(F)(F)F)nn1C [Compound 150]", "CLASS_NAME": "Not fulfilled"}
{"COMPOUND": "CCOc1cc(C(=O)NCC(F)(F)F)nn1Cc1ccnc(C(F)(F)F)c1 [Compound 104]", "CLASS_NAME": "Fulfilled"}
{"COMPOUND": "CCc1cc(C(=O)NC2CC2)nn1Oc1ccnc(C(F)(F)F)c1 [Compound 83]", "CLASS_NAME": "Not fulfilled"}

====

- Test system: wheat
- EXPERIMENT: Test A postemergence
- Assay type: in vivo, Triticum aestivum
- APPLIED_CONDITIONS: Postemergence, 1000 g ai/ha; visual rating after approx. 10 days, 0 to 100 scale (0 no effect, 100 complete control)
I would appreciate it if you labelled entries TRUE when Wheat plant response rating is 20 or higher, otherwise FALSE.

{"COMPOUND": "CCNC(=O)c1cc(SC)n(Cc2cccc(C(F)(F)F)c2)n1 [Compound 23]", "CLASS_NAME": "FALSE"}
{"COMPOUND": "CCCc1cc(C(=O)NC2CC2)nn1Cc1cccc(C(F)(F)F)c1 [Compound 30]", "CLASS_NAME": "TRUE"}
{"COMPOUND": "CCCc1cc(C(=O)NCC(F)(F)F)nn1Cc1cccc(C(F)(F)F)c1 [Compound 31]", "CLASS_NAME": "TRUE"}
{"COMPOUND": "CCCCN(C)C(=O)c1cc(CC)n(Cc2cccc(OC(F)(F)F)c2)n1 [Compound 63]", "CLASS_NAME": "FALSE"}
